Study System: PIM3 (Homo sapiens)
Test Protocol: Pim 3 AlphaScreen assay (high ATP)
Type: biochemical
Recorded Conditions: read-out: Pim3 IC50
pIC50: −log10 of the molar value.
Measured Parameter: pIC50

Reference set, count: 5
CC[C@@H]1O[C@H](c2ccncc2NC(=O)c2ccc(F)c(-c3c(F)cccc3F)n2)C[C@H](N)[C@@]1(C)O (stereo in doubt) = 8.34
COc1cc(F)c(-c2nc(C(=O)Nc3cnccc3[C@H]3C[C@@H](N)[C@](C)(O)[C@@H](C)O3)ccc2F)c(F)c1 = 9.10
Nc1cnc(-c2c(F)cccc2F)nc1C(=O)Nc1cnccc1[C@H]1C[C@@H](O)[C@H](O)C2(CC2)O1 = 6.60
C[C@H]1O[C@@H](c2ccncc2NC(=O)c2ccc(F)c(-c3c(F)cccc3F)n2)C[C@@H](N)[C@]1(C)O = 8.85
CC(C)[C@H]1O[C@@H](c2ccncc2NC(=O)c2ccc(F)c(-c3c(F)ccc(C#N)c3F)n2)C[C@@H](N)[C@@H]1O = 7.83

(1) COc1cc(F)c(-c2nc(C(=O)Nc3cnccc3[C@H]3C[C@@H](N)[C@](C)(O)[C@@H](C4CC4)O3)ccc2F)c(F)c1
(2) CC(C)[C@H]1O[C@@H](c2ccncc2NC(=O)c2ccc(F)c(-c3ccc(C#N)cc3F)n2)C[C@@H](N)[C@@H]1O
For the pair 1 and 2 , which member has the lower pIC50 number? Response format: the label of the selected entry.
2

(P) COc1cc(F)c(-c2nc(C(=O)Nc3cnccc3[C@H]3C[C@@H](N)[C@H](O)[C@@H](C4CC4)O3)ccc2F)c(F)c1
(Q) CC(C)(C)[C@@H]1O[C@H](c2ccncc2NC(=O)c2ccc(F)c(-c3c(F)cccc3F)n2)C[C@H](N)[C@H]1O
For the pair P and Q , which member has the lower pIC50 number? Response format: the label of the selected entry.
Q

* * *

Test system: KMS11 (human myeloma cell line)
Test Protocol: Cell proliferation assay (CellTiter-Glo), KMS11
Type: cell-based
Recorded Conditions: Homo sapiens, KMS-11; KMS11 cells, cell proliferation; read-out: KMS11-Luc EC50
Measured Parameter: EC50 (µM)

Reference set, count: 6
Nc1ncc(-c2ccccc2)nc1C(=O)Nc1cnccc1[C@H]1C[C@@H](N)[C@@]2(O)CCC[C@H]2O1 = 1.57
CC(C)[C@H]1C[C@@H](N)C[C@@H](c2ccncc2NC(=O)c2nc(-c3ccccc3)cnc2N)O1 = 0.7
COCCOc1cc(F)c(-c2nc(C(=O)Nc3cnccc3C3C[C@@H](N)[C@H](O)[C@@H](C(C)C)O3)ccc2F)c(F)c1 (stereo in doubt) = 0.08
CC(C)[C@@H]1O[C@H](c2ccncc2NC(=O)c2nc(-c3ccccc3)cnc2N)C[C@H](N)[C@H]1O = 0.38
Nc1ncc(-c2ccccc2)nc1C(=O)Nc1cnccc1[C@@H]1C[C@H](N)[C@@H](O)[C@H](C2CC2)O1 = 0.54
CC(C)C(=O)Nc1cc(F)c(-c2nc(C(=O)Nc3cnccc3[C@H]3C[C@@H](N)[C@](C)(O)[C@@H](C)O3)ccc2F)c(F)c1 = 0.23

(1) CC[C@@H]1O[C@H](c2ccncc2NC(=O)c2nc(-c3ccccc3)cnc2N)C[C@H](N)[C@@]1(C)O
(2) CC(C)[C@@H]1C[C@H](N)CC(c2ccncc2NC(=O)c2ccnc(-c3c(F)cccc3F)n2)O1 (stereo in doubt)
For the pair 1 and 2 , which member has the lower EC50 number? Response format: the label of the selected entry.
2
